- STUDY TARGET: T1, HLA-B*08:01 (human)
- T1 construct: MHC monomer first loaded with a UV-sensitive peptide that is cleaved by UV light and exchanged for the test peptide
- METHOD NOTES: UV peptide exchange ELISA
MEASUREMENT LABEL: peptide exchange yield

Given the entry SRNPRGFFL [SRNPRGFFL (SEQ ID NO: 95)] , report its measured peptide exchange yield.
20 to 50%

Given the entry TLRLLVAAL [TLRLLVAAL (SEQ ID NO: 50)] , report its measured peptide exchange yield.
50 to 75%

Given the entry GLARIYSF [GLARIYSF (SEQ ID NO: 79)] , report its measured peptide exchange yield.
20 to 50%

Given the entry DMNTKRAIHTL [DMNTKRAIHTL (SEQ ID NO: 67)] , report its measured peptide exchange yield.
20 to 50%

Given the entry DPKSRLKSL [DPKSRLKSL (SEQ ID NO: 28)] , report its measured peptide exchange yield.
20 to 50%

Given the entry VFRVGISF [VFRVGISF (SEQ ID NO: 234)] , report its measured peptide exchange yield.
20 to 50%

Given the entry VPYNSVLF [VPYNSVLF (SEQ ID NO: 187)] , report its measured peptide exchange yield.
20 to 50%

Given the entry NALDPLSAL [NALDPLSAL (SEQ ID NO: 112)] , report its measured peptide exchange yield.
20 to 50%

Given the entry IEQIRAVL [IEQIRAVL (SEQ ID NO: 144)] , report its measured peptide exchange yield.
20 to 50%

Given the entry FPLVTPLL [FPLVTPLL (SEQ ID NO: 125)] , report its measured peptide exchange yield.
50 to 75%

Given the entry IPFIHLPEI [IPFIHLPEI (SEQ ID NO: 199)] , report its measured peptide exchange yield.
20 to 50%

Given the entry DAAAFFKSV [DAAAFFKSV (SEQ ID NO: 251)] , report its measured peptide exchange yield.
20 to 50%

Given the entry VLSGGRILAL [VLSGGRILAL (SEQ ID NO: 166)] , report its measured peptide exchange yield.
20 to 50%

Given the entry LPLAHHIQL [LPLAHHIQL (SEQ ID NO: 72)] , report its measured peptide exchange yield.
50 to 75%

Given the entry STLKKSLEI [STLKKSLEI (SEQ ID NO: 236)] , report its measured peptide exchange yield.
20 to 50%

Given the entry NRKPRTPF [NRKPRTPF (SEQ ID NO: 16)] , report its measured peptide exchange yield.
20 to 50%
